- Tested on: EGFR T790M/L858R Ba/F3 cell line
- Assay: Ba/F3 cell proliferation (MTS assay), EGFR T790M/L858R
- Assay type: cell-based, murine
- Experimental Parameters: read-out: Ba/F3 cellular activity (EC50) T790M/L858R + Cetuximab (1 μg/mL); presence of 1 μg/mL cetuximab
pEC50: −log10 of the molar value.
This listing pairs compounds with measured pEC50.

As a guide, the following entries are already answered.
• CN1CCC(n2cc(-c3ccc4c(c3)C(=O)N(Cc3cccc5cc[nH]c35)c3cc(F)ccc3N4)cn2)CC1 = ≤ 6.12
• O=C1c2cc(-c3ccc4[nH]ccc4c3)ccc2Nc2ccc(F)cc2N1Cc1ccccc1 = > 6.60
• O=C1c2cc(-c3ccc(N4CCNCC4)cc3)ccc2Nc2ccncc2N1Cc1ccccc1 = ≤ 6.12

Data request: What value of measured pEC50 is listed for "CN1CCC(n2cc(-c3ccc4c(c3)C(=O)N(Cc3ccccc3)c3cc(F)ccc3N4)cn2)CC1" ?
Data returned: > 6.60

Data request: What pEC50 value was documented for this compound, "CN1CCC(n2cc(-c3ccc4c(c3)C(=O)N(Cc3cc(F)cc(F)c3)c3cc(F)ccc3N4)cn2)CC1" ?
Data returned: ≤ 6.12

The reported measurements were obtained from patent US11584746B2.
